FYI, the data here is from PubChem BioAssay AID1963964.

Tested on: 997726-040-R-J2-PDC tumor spheroids, viability;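 also: spheroids exposed to compounds for seven days before readout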
Experiment: Anticancer human tumor 997726-040-R-J2-PDC patient-derived squamous cell lung carcinoma cell line growth inhibition [PI3K]
Conditions: second compound 0.316 µM; first compound 0.0316 µM; hits give low values; spheroids with HUVEC and MSC
Description: Combinatorial screen of targeted agents with the PI3K inhibitors inavolisib, alpelisib, duvelisib, and copanlisib in multi-cell type tumor spheroids A high-throughput screen of multi-cell type tumor spheroids was designed to identify active combinations of targeted small molecules and PI3K pathway inhibitors. […] Compounds. […] If the clinical Cmax for an agent had not been determined, the highest concentration tested was 10 microM. […]
assayMetric: viability, T/C (%)
Number only, in %; omit the unit.

compound="CNC(=O)c1ccc(N2C(=S)N(c3ccc(C#N)c(C(F)(F)F)c3)C(=O)C2(C)C)cc1F + CC(Nc1ccc2c(c1)OCCn1cc(N3C(=O)OCC3C(F)F)nc1-2)C(N)=O" assaymetric="viability, T/C" unitsofmeasure=% obsvalue=34.6
compound="C#Cc1c(F)ccc2cc(O)cc(-c3ncc4c(N5CC6CCC(C5)N6)nc(OCC56CCCN5CC(F)C6)nc4c3F)c12 (configuration not stated) + Cc1nc(NC(=O)N2CCCC2C(N)=O)sc1-c1ccnc(C(C)(C)C(F)(F)F)c1" assaymetric="viability, T/C" unitsofmeasure=% obsvalue=59.6
compound="C#Cc1c(F)ccc2cc(O)cc(-c3ncc4c(N5CC6CCC(C5)N6)nc(OCC56CCCN5CC(F)C6)nc4c3F)c12 (configuration not stated) + CC(Nc1ccc2c(c1)OCCn1cc(N3C(=O)OCC3C(F)F)nc1-2)C(N)=O" assaymetric="viability, T/C" unitsofmeasure=% obsvalue=35.8
compound="CCCS(=O)(=O)Nc1ccc(F)c(C(=O)c2c[nH]c3ncc(-c4ccc(Cl)cc4)cc23)c1F + COc1c(OCCCN2CCOCC2)ccc2c3n(c(=NC(=O)c4cnc(N)nc4)nc12)CCN3" assaymetric="viability, T/C" unitsofmeasure=% obsvalue=5.93
compound="C=CC(=O)N1CCN(c2nc(=O)n(-c3c(C)ccnc3C(C)C)c3nc(-c4c(O)cccc4F)c(F)cc23)C(C)C1 (configuration not stated) + CC(Nc1ncnc2nc[nH]c12)c1cc2cccc(Cl)c2c(=O)n1-c1ccccc1" assaymetric="viability, T/C" unitsofmeasure=% obsvalue=104
compound="Cn1nccc1Nc1nccc(-c2ccn(C(CO)c3ccc(Cl)c(F)c3)c(=O)c2)n1 (configuration not stated) + CC(Nc1ccc2c(c1)OCCn1cc(N3C(=O)OCC3C(F)F)nc1-2)C(N)=O" assaymetric="viability, T/C" unitsofmeasure=% obsvalue=35.5
compound="CC(C)NCC(C(=O)N1CCN(c2ncnc3c2C(C)CC3O)CC1)c1ccc(Cl)cc1 (configuration not stated) + CC(Nc1ccc2c(c1)OCCn1cc(N3C(=O)OCC3C(F)F)nc1-2)C(N)=O" assaymetric="viability, T/C" unitsofmeasure=% obsvalue=34.7
compound="CC(Cn1ccc(-c2ccc(C#N)c(Cl)c2)n1)NC(=O)c1cc(C(C)O)[nH]n1 (configuration not stated) + CC(Nc1ccc2c(c1)OCCn1cc(N3C(=O)OCC3C(F)F)nc1-2)C(N)=O" assaymetric="viability, T/C" unitsofmeasure=% obsvalue=39

Give recorded viability, T/C with 997726-040-R-J2-PDC tumor spheroids, viability for the following compound: CCN1CCN(Cc2ccc(Nc3ncc(F)c(-c4cc(F)c5nc(C)n(C(C)C)c5c4)n3)nc2)CC1 + COc1c(OCCCN2CCOCC2)ccc2c3n(c(=NC(=O)c4cnc(N)nc4)nc12)CCN3
4.5

Give recorded viability, T/C with 997726-040-R-J2-PDC tumor spheroids, viability for the following compound: CC(=O)c1c(C)c2cnc(Nc3ccc(N4CCNCC4)cn3)nc2n(C2CCCC2)c1=O + Cc1nc(NC(=O)N2CCCC2C(N)=O)sc1-c1ccnc(C(C)(C)C(F)(F)F)c1
46.4

Give recorded viability, T/C with 997726-040-R-J2-PDC tumor spheroids, viability for the following compound: Cn1nccc1Nc1nccc(-c2ccn(C(CO)c3ccc(Cl)c(F)c3)c(=O)c2)n1 (configuration not stated) + Cc1nc(NC(=O)N2CCCC2C(N)=O)sc1-c1ccnc(C(C)(C)C(F)(F)F)c1
55.4

Give recorded viability, T/C with 997726-040-R-J2-PDC tumor spheroids, viability for the following compound: C#Cc1c(F)ccc2cc(O)cc(-c3ncc4c(N5CC6CCC(C5)N6)nc(OCC56CCCN5CC(F)C6)nc4c3F)c12 (configuration not stated) + CC(Nc1ncnc2nc[nH]c12)c1cc2cccc(Cl)c2c(=O)n1-c1ccccc1
97.1

Give recorded viability, T/C with 997726-040-R-J2-PDC tumor spheroids, viability for the following compound: CC1(C)CCC(Nc2ncc(C(F)(F)F)c(-c3c[nH]c4c(P(C)(C)=O)c(C#N)ccc34)n2)CN1 (configuration not stated) + CC(Nc1ncnc2nc[nH]c12)c1cc2cccc(Cl)c2c(=O)n1-c1ccccc1
52.3
